Values were extracted from IntAct's records for PubMed 31515488.

B1: Germ cell-less protein-like 1 (Homo sapiens), Q96IK5 (parent)
chain: MGSLSSRVLRQPRPALAQQAQGARAGGSARRPDTGDDAAGHGFCYCAGSHKRKRSSGSFCYCHPDSETDEDEEEGDEQQRLLNTPRRKKLKSTSKYIYQTLFLNGENSDIKICALGEEWSLHKIYLCQSGYFSSMFSGSWKESSMNIIELEIPDQNIDVEALQVAFGSLYRDDVLIKPSRVVAILAAACLLQLDGLIQQCGETMKETVNVKTVCGYYTSAGTYGLDSVKKKCLEWLLNNLMTHQNVELFKELSINVMKQLIGSSNLFVMQVEMDIYTALKKWMFLQLVPSWNGSLKQLLTETDVWFSKQRKDFEGMAFLETEQGKPFVSVFRHLRLQYIISDLASARIIEQDAVVPSEWLSSVYKQQWFAMLRAEQDSEVGPQEINKEELEGNSMRCGRKLAKDGEYCWRWTGFNFGFDLLVTYTNRYIIFKRNTLNQPCSGSVSLQPRRSIAFRLRLASFDSSGKLICSRTTGYQILTLEKDQEQVVMNLDSRLLIFPLYICCNFLYISPEKKN
partner: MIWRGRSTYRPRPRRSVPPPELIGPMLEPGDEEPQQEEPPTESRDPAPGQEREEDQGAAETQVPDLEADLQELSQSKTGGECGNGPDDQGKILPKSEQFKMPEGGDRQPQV

variants of: B1; settings: with xage3_human XAGE3, Q8WTP9
readout.label: effect of a mutation on the interaction

Worked examples follow.
[
  {
    "mutation.name": "I340V",
    "effect of a mutation on the interaction": "with no effect"
  },
  {
    "mutation.name": "R457H",
    "effect of a mutation on the interaction": "with no effect"
  },
  {
    "mutation.name": "K123R",
    "effect of a mutation on the interaction": "with no effect"
  },
  {
    "mutation.name": "I147V",
    "effect of a mutation on the interaction": "with no effect"
  },
  {
    "mutation.name": "E77K",
    "effect of a mutation on the interaction": "with no effect"
  }
]

Which measured effect of a mutation on the interaction value corresponds to R449Q ?
with no effect

Also check K281Q
with no effect

// same read-out, input: Y61S
with no effect
